- Tested on: A549
- Procedure text: NCI tumour cell line growth inhibition, 48 h
The source made the active and inactive calls. Rule as the data show it: active = GI50 up to about 1.1 µM and inactive = higher.
Quick list: GI50 per entry.

Worked cases, answers included:
C=C1C(=O)O[C@H]2C[C@@]3(C)[C@H](O)CCC(=C)[C@@H]3[C@@H](OC(C)=O)[C@H]12
14.7 µM (inactive)
COC(=O)CSc1cc(Cl)c(C)cc1S(=O)(=O)Nc1n[nH]c(N)n1
> 10 µM (inactive)
COc1ccc(NS(=O)(=O)c2ccc(/N=C3\C=C(Nc4ccc(S(=O)(=O)Nc5ccc(OC)nn5)cc4)C(=O)c4ccccc43)cc2)nn1
17.9 µM (inactive)
CC1CN=C(N(C(=O)Nc2ccccc2)c2ccccc2)S1 (stereo unspecified)
33.4 µM (inactive)
CSC(SC)=C(C#N)C(=O)Nc1ccc(Cl)cc1
31.3 µM (inactive)

Asked: Item C=C(C)C1CC=C(C)C(O)([C@@]2(O)C[C@H](C(=C)C)CC=C2C)C1 (stereo partly specified) with A549 - GI50?
Given back: 29.7 µM (inactive)

Asked: Item O=c1cc(/N=N\c2ccc(Br)cc2)[nH]c(=S)[nH]1 with A549 - GI50?
Given back: > 100 µM (inactive)

Asked: Item CCN(CC)CCNC(=O)c1cc2cc(NC(=O)c3cc4cc([N+](=O)[O-])ccc4[nH]3)ccc2[nH]1 with A549 - GI50?
Given back: 19.3 µM (inactive)

Asked: Item CC(Oc1cc2oc(=O)cc(-c3ccccc3)c2cc1Cl)C(=O)O (stereo unspecified) with A549 - GI50?
Given back: > 100 µM (inactive)

Asked: Item N#Cc1nc2cc(Cl)ccc2nc1N1CCN(c2ccc([N+](=O)[O-])cc2)CC1 with A549 - GI50?
Given back: > 100 µM (inactive)

Asked: Item COC(=O)C1=C(C(=O)OC)N(C(C)C)[C@H]2C(C(=O)OC)=C(C(=O)OC)N(C(C)C)[C@@H]12 with A549 - GI50?
Given back: > 100 µM (inactive)

Asked: Item COc1cc(C=O)cc(/C=N/N=C/c2ccccc2O)c1O with A549 - GI50?
Given back: 79.6 µM (inactive)

Asked: Item Cc1ccc(Cc2nn(C)c(=O)n2N)cc1 with A549 - GI50?
Given back: > 100 µM (inactive)

Asked: Item Cc1ccc(NC(=S)NNC(=O)c2cc(-c3ccccc3)nc3ccccc23)cc1C with A549 - GI50?
Given back: 20.5 µM (inactive)

Asked: Item CCSCC(=O)N1CCc2c([nH]c3ccccc23)C1=O with A549 - GI50?
Given back: > 100 µM (inactive)

Asked: Item CC(SC(=S)N1CCOCC1)C(=O)Nc1nnc(-c2ccc(Cl)cc2)o1 (stereo unspecified) with A549 - GI50?
Given back: 34.5 µM (inactive)
